Measured viability, T/C by item
tested on: 565232-114-T-J1-PDC complex spheroid viability; assay: Anticancer human tumor 565232-114-T-J1-PDC patient-derived bladder carcinoma cell line growth inhibition [CLK]; conditions: second compound 0.316 µM; first compound 0.316 µM; active compounds read low;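 also: spheroids exposed to compounds for 7 days before readout; 100% = DMSO vehicle wells with luminescence normalized to vehicle control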

compound | scale-unit | viability, T/C
CC1COCCN1c1cc(C2(S(C)(=N)=O)CC2)nc(-c2ccnc3[nH]ccc23)n1 (stereo not given) + CN1CCN(c2cc(C(=O)Nc3cc4cc(-c5cnn(C)c5)ccc4cn3)ccn2)CC1 | % | 14.9
COc1ccc([C@@H](O)c2cc(-c3ncnc4cc(N5CCOCC5)ccc34)c(F)cc2Cl)nn1 + CNC(=O)c1ccc(Nc2nc(OC3CCCC3)c3c(-c4ccc5nc(C)oc5c4)c[nH]c3n2)c(OC)c1 | % | 27.9
O=c1[nH]cc(F)c(=O)[nH]1 + CN1CCN(c2cc(C(=O)Nc3cc4cc(-c5cnn(C)c5)ccc4cn3)ccn2)CC1 | % | 22.1
C=C(F)C(=O)N1CCN(c2nc(OCC3CCCN3C)nc3c2CCN(c2cccc4cccc(Cl)c24)C3)CC1CC#N (stereo not given) + CNC(=O)c1ccc(Nc2nc(OC3CCCC3)c3c(-c4ccc5nc(C)oc5c4)c[nH]c3n2)c(OC)c1 | % | 34.2
CC1(C)CCC(CN2CCN(c3ccc(C(=O)NS(=O)(=O)c4ccc(NCC5CCOCC5)c([N+](=O)[O-])c4)c(Oc4cnc5[nH]ccc5c4)c3)CC2)=C(c2ccc(Cl)cc2)C1 + CN1CCN(c2cc(C(=O)Nc3cc4cc(-c5cnn(C)c5)ccc4cn3)ccn2)CC1 | % | 18.5
